measured_quantity: melting point (°C)

I = COC(=O)c1ccc(C(=O)c2cccc3ccccc23)n1C
II = CCCCCCCCCCCCCCCCCC(=O)Nc1ccc(NC(=O)NS(=O)(=O)c2ccc(OC)cc2)cc1
// pick min by melting point: I , II Write down the label of the entry you select.
I

###

In this section, each of the compounds is paired with its reported melting point.

Worked examples, 4 compounds total:
Nc1ccc(OC[C@@H]2CCCN2c2ccc3ccccc3n2)cc1; 138 to 140 °C
COc1cc2c(c3c1OC(C)(C)C3)C(c1cccc(C(N)=O)c1)=NCC2(C)C; 191 to 193 °C
COCCOc1ccc(C(=O)C(=O)O)cc1; 129 to 130 °C
Clc1ccc(Cn2cc(CCN=c3sc4ccccc4s3)c3ccccc32)cc1; 120 to 121 °C

# melting point (compound: Cc1cc(Cc2nnc(Nc3cc(Br)cc(C(F)(F)F)c3)c3ccccc23)ccn1 ) is 122 to 123 °C

# melting point (compound: CN(C)NC(=O)c1sc(Nc2ccccc2)c2c1CCc1cnoc1-2 ) is 179 to 180 °C

###

measured_quantity: melting point

# melting point (compound: O=c1oc2c(c(O)c1C(c1cccc(S(=O)(=O)Nc3ccccc3)c1)C1CC1)CCCCCC2 (stereo not given) ) is 200 to 203 °C

###

measured_quantity: melting point

# melting point (compound: CC(=O)c1ccc2c(c1)Cc1ccc(C(C)=O)cc1-2 ) is 155 °C

###

In this section, each of the compounds is paired with its reported melting point.

Worked examples, 2 compounds total:
O=c1[nH]c(=O)n(COc2ccccc2)cc1F; 150 °C
O=C(N1CC([N+](=O)[O-])([N+](=O)[O-])C1)C(F)(F)F; 70 to 71 °C

# melting point (compound: O=C(O)COc1ccc(C(=O)C=Cc2ccccc2)c(Cl)c1Cl ) is 190 to 191 °C

# melting point (compound: COC(=O)c1ccc(Cc2cn(C)c3ccc(CC(C)C(=O)O)cc23)c(OC)c1 (stereo not given) ) is 149 to 151 °C

###

In this section, each of the compounds is paired with its reported melting point.

Worked examples, 5 compounds total:
CN1CC2C(C1)C2Nc1ncc2cc(-c3ccccc3Cl)c(=O)n(C3CC3)c2n1 (stereo not given); 190 to 191 °C
O=C1N(c2c(Cl)cccc2Cl)Cc2cnc(NC3CCCCC3)nc2N1c1ccccc1; 258 to 259 °C
COC(=O)n1c(Br)c(Br)c(C#N)c1Br; 120 to 122 °C
Nc1c(C2=CCCCC2)c(-c2ccccc2)nn1-c1ccccc1; 115 to 117 °C
CN(CCCNc1ncc(Cc2ccccc2Cl)c(=O)[nH]1)c1ccccn1; 47 to 49 °C

# melting point (compound: O=C(O)c1ccccc1OCCCCCOc1ccccc1C(=O)O ) is 105 to 106 °C

# melting point (compound: COc1cc(NC(=O)N(CCCCCC(=O)O)c2ccccc2)c(O)c(C(C)(C)C)c1 ) is 95 to 98 °C

# melting point (compound: O=C1c2ccccc2-c2c1c(Cl)nc1cc(O)ccc21 ) is > 300 °C

# melting point (compound: CC(C)(C)C1CCC2(CC1)CC(O)(CNC1CCCCC1)CO2 (stereo not given) ) is 113 to 115 °C

# melting point (compound: N#Cc1ccc2nccn2c1 ) is 166 to 167 °C

###

measured_quantity: melting point

# melting point (compound: CCc1ccc(C(=NO)c2ccc(Cl)cc2)c(O)c1 ) is 159 to 161 °C

# melting point (compound: CC(=O)Nc1cnc(C=NNC(N)=S)cc1C ) is 229 to 231 °C

# melting point (compound: COc1cc(O)ccc1CCCc1ccc(O)c(CC=C(C)C)c1 ) is 85 to 86 °C

###

In this section, each of the molecules is paired with its reported melting point.

Worked examples, 5 molecules total:
CC(=O)S[C@@H]1CCO[C@@H](c2ccccc2)O1 (relative stereo); 95 to 96 °C
N#CSCC(=O)c1ccccc1; 75 to 77 °C
O=C(NC1CCN(CCCOc2ccccc2-c2nnn[nH]2)CC1)c1ccccc1; 275 to 277 °C
CC(C)Cc1[nH]nc2c(N)nc3ccccc3c12; 248 to 249 °C
CN1CN(c2ccccc2)C2(CCN(CCCn3c(=O)[nH]c4ccccc43)CC2)C1=O; 186 °C

Now examine the next entry.
# melting point (molecule: CCOC(=O)Cc1ccc(C(=O)c2ccc(Cl)cc2)n1C ) is 74 to 76 °C

###

measured_quantity: melting point

O=S(=O)(c1ccc(F)cc1)N1CCCC1c1ccc(C(F)(F)F)cc1 (racemic); 114 °C
CCCN(Cc1ccc(-c2ccccc2-c2nnn[nH]2)cc1)c1nc(C)cnc1C(=O)OCC; 172 to 174 °C
O=C(CCN1CCC(C(O)(c2ccc(F)cc2)c2ccc(F)cc2)CC1)Nc1ccccc1; 190 to 192 °C
Cc1cccc2c(=O)n(C3CCC(=O)NC3=O)cnc12 (stereo not given); 290 to 292 °C
CC(=S)NCC1CC(c2ccc(-n3cccc3)c(F)c2)=NO1 (single isomer, unassigned; (-)); 152 to 153 °C

# melting point (compound: Cc1ccc(S(=O)(=O)Cl)c2c1CCN(C(=O)C(F)(F)F)C2 ) is 152 to 153 °C

# melting point (compound: Cc1nc(C(=O)c2ccc(Cl)cc2)sc1C ) is 97 °C

# melting point (compound: Cn1nnnc1C(/C=C/[C@@H]1C[C@@H](O)CC(=O)O1)=C(c1ccc(F)cc1)c1ccc(F)cc1 ) is 104 to 106 °C

# melting point (compound: CC1(C)OC(C)(C)C(=NO)C1=NO ) is 252 °C

###

In this section, each of the compounds is paired with its reported melting point.

Worked examples, 5 compounds total:
COC(=O)c1cc2ccc(C(=O)NCCN3CCOCC3)cc2[nH]1; 226 to 228 °C
NCc1ccc(-c2csc(N=C(N)N)n2)o1; 160 to 163 °C
CC(C)Cc1cc(OCC(=O)N(C)C)c2[nH]nc(Nc3nccs3)c2c1; 96 to 98 °C
O=C(NC(Cc1ccc(OCc2ccccc2)cc1)C(=O)O)c1cn2cc(-c3ccccc3Cl)ccc2n1 (configuration not stated); 228 °C
CNCc1c(C)c([N+](=O)[O-])cc2[nH]c(=O)c(=O)[nH]c12; 260 to 261 °C

# melting point (compound: CCC1CC2C3CCC4=CC(=O)CCC4=C3CCC2(C)C1O (configuration not stated) ) is 124 to 126 °C

# melting point (compound: N#Cc1nn(-c2c(Cl)cc(OC(F)(F)F)cc2Cl)c(N)c1I ) is 150 °C

# melting point (compound: CCOCc1nc2c(N)nc3cc(OCc4ccccc4)ccc3c2n1CC(C)C ) is 201 to 203 °C

# melting point (compound: COC(=O)C(NC(C)=O)C(=O)OCCBr (configuration not stated) ) is 84 to 85 °C

# melting point (compound: C[C@@H](O)[C@](O)(Cn1cncn1)c1ccc(F)cc1F (racemic) ) is 115 to 117 °C

# melting point (compound: CC(=O)Nc1nc(NC(C)=O)nc(-c2ccc(S(=O)(=O)c3ccccc3)cc2)n1 ) is > 260 °C

# melting point (compound: O=C(Nc1cc(Cl)cc(Cl)c1)c1cc(Br)ccc1O ) is 243 to 244 °C

# melting point (compound: COCn1c(-c2nc3c(OC)ccc(N4CCOCC4)c3s2)nc2ccc(Cl)nc21 ) is 167 to 170 °C

# melting point (compound: NC(=O)C1(c2ccccc2)CCN(Cc2ccccc2)C1 (configuration not stated) ) is 88 to 90 °C

# melting point (compound: COC(=O)C1=C(C)NC(N)=C(C(=O)OC(C)C)C1c1ccccc1C#N (configuration not stated) ) is 211 °C

# melting point (compound: Cc1ccn(-c2ccc(C)c(C(=O)N3Cc4cccnc4Nc4ccccc43)c2)n1 ) is 209 to 210 °C

# melting point (compound: Cc1oc(-c2ccccc2)nc1COc1cccc(CSc2cccc(CC(=O)O)c2)c1 ) is 81 to 82 °C

# melting point (compound: CCc1c(Oc2cc(C)cc(C)c2)n(C/C=C/CO)c(=O)[nH]c1=O ) is 125 to 126 °C

###

In this section, each of the molecules is paired with its reported melting point.

COc1cc(Nc2nc3cccc(-c4cccc(C)c4)c3o2)cc(OC)c1OC; 153 to 155 °C
CCCn1c(=O)c2[nH]c(/C=C/c3ccc4c(c3)OCO4)nc2n(CCC)c1=O; > 270 °C
CCCn1c(=O)c2cc(C(=O)OCC)cn2c2ccccc21; 143 to 144 °C

# melting point (molecule: C=CCn1c(C)c(C)c2cnnc(OCc3ccc(F)cc3)c21 ) is 125 to 126 °C

# melting point (molecule: O=C1N(Cc2ccccc2C(F)(F)F)c2ccccc2C12COc1cc3c(cc12)OCCO3 (stereo not given) ) is 137 to 138 °C

# melting point (molecule: Cc1ccc(=Nc2nnc(C(F)(F)F)s2)n(-c2cccc(C(F)(F)F)c2)c1 ) is 179 °C

# melting point (molecule: CC(=O)SCC(Cc1ccccc1)C(=O)Nc1cccc(C(=O)O)c1C (stereo not given) ) is 162 to 163 °C

# melting point (molecule: O=C(CBr)Nc1ccc(Br)cc1C(=O)O ) is 203 to 204 °C

# melting point (molecule: CN1CCC2(C)c3cc(C(=O)C(=O)OCc4ccccc4)ccc3N(C)C12 (stereo not given) ) is 53 to 57 °C

# melting point (molecule: NC1=CC([N+](=O)[O-])C(N)(CC(F)(F)F)C=C1 (stereo not given) ) is 104 to 106 °C
